List of pIC50 values.
# target_under_test: Induced myeloid leukemia cell differentiation protein Mcl-1 (Homo sapiens, UniProt Q07820)
# Sequence (Q07820 whole entry): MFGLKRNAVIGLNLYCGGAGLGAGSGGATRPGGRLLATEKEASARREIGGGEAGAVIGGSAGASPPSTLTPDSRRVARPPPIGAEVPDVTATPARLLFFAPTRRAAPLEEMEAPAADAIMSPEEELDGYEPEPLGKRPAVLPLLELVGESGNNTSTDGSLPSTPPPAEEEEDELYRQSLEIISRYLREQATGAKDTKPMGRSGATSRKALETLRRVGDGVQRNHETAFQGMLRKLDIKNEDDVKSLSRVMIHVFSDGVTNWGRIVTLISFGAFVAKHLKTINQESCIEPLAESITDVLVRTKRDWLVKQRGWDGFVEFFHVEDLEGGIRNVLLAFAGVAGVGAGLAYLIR
# assay_name: Inhibition of Bak binding to Mcl-1 by FRET assay
pIC50: −log10 of the molar value.

{"columns": ["entry_smiles", "measured_result"],
 "data": [
  ["Oc1c(Br)cc(Br)cc1Oc1cc(Br)c(Br)c(Br)c1O", "< 4.78"]
]}

Dear colleague, I am looking for the recorded pIC50 of the following compound: `Oc1c(Br)cc(Br)cc1Oc1c(O)c(Br)c(Br)c(Br)c1Br`
< 4.83

Same thing, different compound: `Oc1cc(Br)cc(Br)c1Oc1ccc(Br)cc1Br`
5.32

Ok, now `COc1c(Br)c(Br)cc(Br)c1Oc1cc(Br)cc(Br)c1O`
< 4.79

What do you have for `Oc1c(Br)cc(Br)cc1Oc1c(O)c(Br)cc(Br)c1Br` ?
< 4.78

Now consider `Oc1cc(Br)c(Br)c(Br)c1Oc1cc(Br)cc(Br)c1O` .
< 4.78

Queued: `Oc1c(Br)c(Br)cc(Br)c1Oc1ccc(Br)cc1Br`
< 4.76

Follow-up item: `Oc1c(Br)cc(Br)cc1Oc1c(Br)cc(Br)c(Br)c1O`
< 4.78
